Tested on: CAL-148
Assay: normalised response (% of control), CellTiter-Glo; higher = more viable cells (100 = DMSO, 0 = benzethonium chloride kill control)
Settings: incubation time: 72 h
assayEndpoint: normalised response (%)
One number for each entry, in %.

compound="Cc1cc(Nc2cc(CN3CCOCC3)c3nc(C)c(Cc4ccc(Cl)cc4F)n3n2)n[nH]1 [Gandotinib] (10 nM)" assayendpoint="normalised response" valueunits=% testvalue=110
compound="CC(C)C[C@@H](C(=O)N[C@H](C(=O)OC1CCCC1)c1ccccc1)[C@H](O)C(=O)NO [Tosedostat] (1000 nM)" assayendpoint="normalised response" valueunits=% testvalue=72.9
compound="CNC(=O)c1cccc(-c2ccc3c(N4CCOC[C@@H]4C)nc(N4CCOC[C@@H]4C)nc3n2)c1 [AZD2014] (1 nM)" assayendpoint="normalised response" valueunits=% testvalue=111
compound="c1ccc2c(CCNc3ccc(Nc4ccncc4)cc3)c[nH]c2c1 [Serdemetan] (1 nM)" assayendpoint="normalised response" valueunits=% testvalue=91
compound="CNC(=O)c1cccc(-c2ccc3c(N4CCOC[C@@H]4C)nc(N4CCOC[C@@H]4C)nc3n2)c1 [AZD2014] (10 nM)" assayendpoint="normalised response" valueunits=% testvalue=106
compound="CCOC(=O)CCNc1cc(N2CCc3ccccc3CC2)nc(-c2ccccn2)n1 [GSK-J4] (100 nM)" assayendpoint="normalised response" valueunits=% testvalue=101
compound="COCC1(CO)C(=O)C2CCN1CC2 (stereo unspecified) [Prima-1 Met] (10 nM)" assayendpoint="normalised response" valueunits=% testvalue=102
compound="COc1cc(OC2CCN(C)CC2)ccc1Nc1ncc2c(n1)n(C1CCCC1)c(=O)n2C [AZ 3146] (10 nM)" assayendpoint="normalised response" valueunits=% testvalue=99.7

Each compound below has a recorded value; state its normalised response.
1. COc1cc(O)c2c(c1)/C=C/C[C@H](O)[C@H](O)C(=O)/C=C\C[C@H](C)OC2=O [(5Z)-7-Oxozeaenol] (10 nM)
2. COc1cc2/c(=N/c3ccc(Br)cc3F)nc[nH]c2cc1OCC1CCN(C)CC1 [Vandetanib] (1 nM)
3. O=C(/C=C/c1cccc(S(=O)(=O)Nc2ccccc2)c1)NO [Belinostat] (10 nM)
4. S=P(N1CC1)(N1CC1)N1CC1 [Thio-TEPA] (5000 nM)
5. COc1cc2c(NC3CCN(C(C)C)CC3)nc(N3CCC(F)(F)CC3)nc2cc1OCCCN1CCCC1 [UNC0642] (1000 nM)

### Response
1. 106
2. 83.8
3. 85.7
4. 93
5. 89.1

Dear reader, for each entry below, please note its normalised response.
1. CCn1c(-c2nonc2N)nc2cnc(Oc3cccc(NC(=O)c4ccc(OCCN5CCOCC5)cc4)c3)cc21 (10 nM)
2. COc1cc(OC2CCN(C)CC2)ccc1Nc1ncc2c(n1)n(C1CCCC1)c(=O)n2C [AZ 3146] (1000 nM)
3. CCOC(=O)CCNc1cc(N2CCc3ccccc3CC2)nc(-c2ccccn2)n1 [GSK-J4] (10 nM)

### Response
94.9
94.5
92.8

###

Test system: CAL-148
Assay: normalised viability (% of control), CellTiter-Blue; higher = more viable cells (about 100 = DMSO control)
Conditions: incubation time: 72 h
assayEndpoint: normalised viability (%)
Numbers only, in %.

For every record below, what is its normalised viability?
1. NC(=O)c1ccc(I)c([N+](=O)[O-])c1 [Iniparib] (10000 nM)
2. Cc1[nH]c2ccccc2c1CCNCc1ccc(/C=C/C(=O)NO)cc1 [Panobinostat] (1000 nM)
3. O=C(/C=C/c1cccc(S(=O)(=O)Nc2ccccc2)c1)NO [Belinostat] (10000 nM)
4. CC(C)C[C@@H](C(=O)N[C@H](C(=O)OC1CCCC1)c1ccccc1)[C@H](O)C(=O)NO [Tosedostat] (10000 nM)
5. CN(C)c1nc(N(C)C)nc(N(C)C)n1 [Altretamine] (10000 nM)

### Response
108
0.37
0.35
23.2
63.4
